Target: Cholinesterase (Equus caballus)
Sequence (P81908 whole entry): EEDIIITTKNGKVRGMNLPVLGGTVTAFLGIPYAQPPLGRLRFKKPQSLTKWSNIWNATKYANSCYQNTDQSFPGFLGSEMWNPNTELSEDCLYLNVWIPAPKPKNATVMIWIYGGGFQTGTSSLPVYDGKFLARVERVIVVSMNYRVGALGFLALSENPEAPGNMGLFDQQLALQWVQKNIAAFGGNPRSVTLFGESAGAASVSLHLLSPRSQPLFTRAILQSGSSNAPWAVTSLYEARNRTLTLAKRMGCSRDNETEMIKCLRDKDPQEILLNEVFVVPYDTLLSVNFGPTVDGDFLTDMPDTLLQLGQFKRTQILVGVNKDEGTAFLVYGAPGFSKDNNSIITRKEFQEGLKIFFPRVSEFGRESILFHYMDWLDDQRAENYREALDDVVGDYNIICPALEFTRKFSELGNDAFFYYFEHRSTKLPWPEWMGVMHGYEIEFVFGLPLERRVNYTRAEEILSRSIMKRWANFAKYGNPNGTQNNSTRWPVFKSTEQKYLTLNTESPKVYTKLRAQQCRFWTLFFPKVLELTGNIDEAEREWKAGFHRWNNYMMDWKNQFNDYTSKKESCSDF
Test: Inhibition of equine serum BChE using butyrylthiocholine iodide as substrate preincubated for 20mins before the addition of substrate by Ellman's method
Entries annotated with measured IC50
Field note: include the unit after the figure.

>>> reported_value("CC1(C)CC[C@]2(C(=O)O)CC[C@]3(C)C(=CC[C@@H]4[C@@]5(C)C[C@H](O)[C@H](O)C(C)(C)[C@@H]5CC[C@]43C)[C@@H]2C1 [AUGUSTIC ACID]")
"16.6 µM"

Continue with the molecule presented below.
QUERY: Reported IC50, molecule `CC1(C)CC[C@]2(C(N)=O)CC[C@]3(C)C(=CC[C@@H]4[C@@]5(C)C[C@@H](O)[C@H](O)C(C)(C)[C@@H]5CC[C@]43C)[C@@H]2C1` : ____
RESULT: 34.1 µM
